Examples of binders with documented SPOT intensity follow.
- target: T1, Bud14, P27637
- T1 sequence (P27637 247-328, looked up): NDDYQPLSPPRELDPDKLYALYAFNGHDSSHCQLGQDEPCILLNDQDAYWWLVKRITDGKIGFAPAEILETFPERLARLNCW
- procedure.summary: SPOT array
- condition.details: median of control spots 956
Lab note: jot the number down without any unit.

binder=VATSTSPKLPPRGKQ recorded_result=0
binder=RKRAPTPPAPSRSEK recorded_result=6

Consider the binder `SRYRRPLTLLLLKPF` and give its measured SPOT intensity. 15

Moving on to `NVLRKILEIPLHSFS` 31

Quick one: `MSPLGAPPPPPHKDH` 0

# iterate: `RLSRLLLSLPPESFT` 50
